System: BJ, B16-F10, T47D, T47Dp53 and HeLa cells
Protocol Notes: Cell cycle assay (propidium iodide flow cytometry), cell line panel
Type: cell-based
Condition Description: 150 nM oligomeric compound, 4.5 μg/ml LIPOFECTIN, after 72 hours, propidium iodide flow cytometry
In the oligonucleotide strings, read from the 5' end, every base follows the letter of its sugar. An asterisk marks phosphorothioate; unmarked linkages are phosphodiester. Other units and linkages are bracketed, terminal groups are in braces. A string of capitals states the bases alone. e = 2'-O-(2-methoxyethyl) (MOE); [5mC] = 5-methylcytosine; d = 2'-deoxy (DNA)
I'd appreciate it if you could supply aneuploid (percentage of cells) values for the items below.
Give the value in % but do not write % after it.

Please tell me: aneuploid (percentage of cells) of 327914 (antisense eG*e[5mC]*e[5mC]*e[5mC]*eT*eT*eT*eT*eA*eA*e[5mC]*eA*eT*eT*eG*e[5mC]*eA*e[5mC]*eT*eG) [compound 327914] , system BJ, B16-F10, T47D, T47Dp53 and HeLa cells? 16.2

What aneuploid (percentage of cells) appears in the records for this substance with BJ, B16-F10, T47D, T47Dp53 and HeLa cells? 327910 (antisense eT*eG*eA*eT*eA*eG*e[5mC]*e[5mC]*e[5mC]*eT*eG*eT*eA*e[5mC]*eA*eA*eT*eG*e[5mC]*eT*eG*e[5mC]*eT) [compound 327910] 13.1

Entry 328364 (eT*e[5mC]*eT*eT*eA*dA*dG*dT*d[5mC]*dA*d[5mC]*dA*dA*dA*dT*e[5mC]*eA*eG*e[5mC]*eA) [compound 328364] , system BJ, B16-F10, T47D, T47Dp53 and HeLa cells: what aneuploid (percentage of cells) was measured? 15.1

Request: aneuploid (percentage of cells), test system BJ, B16-F10, T47D, T47Dp53 and HeLa cells, entry 328362 (eT*eG*eT*eG*eT*dT*dT*dT*d[5mC]*dT*dG*dA*d[5mC]*dT*d[5mC]*eA*eG*eT*e[5mC]*eA) [compound 328362] 12.9

Provide value of aneuploid (percentage of cells) for this record tested with BJ, B16-F10, T47D, T47Dp53 and HeLa cells: 328436 (antisense eG*eA*eA*eA*eA*dT*dT*dA*dT*dA*dT*dT*dG*dA*d[5mC]*eT*e[5mC]*eT*eG*eA) [compound 328436] 17.4

Form field: aneuploid (percentage of cells) recorded for 327922 (antisense eT*e[5mC]*eA*eG*eT*eT*eT*eT*eG*e[5mC]*eA*eT*eG*eG*eA*eT*eT*eT*eG*e[5mC]*eA*e[5mC]*eA) [compound 327922] with BJ, B16-F10, T47D, T47Dp53 and HeLa cells (enter value) 16.8

====

System: IL-6 mRNA
Protocol Notes: IL-6 mRNA in LPS-activated primary murine macrophages
Assay type: cell-based, mouse
Condition Description: 75 nM, −IFN, average of 3 treatments
In the oligonucleotide strings, read from the 5' end, every base follows the letter of its sugar. An asterisk marks phosphorothioate; unmarked linkages are phosphodiester. Other units and linkages are bracketed, terminal groups are in braces. A string of capitals states the bases alone. e = 2'-O-(2-methoxyethyl) (MOE); [5mC] = 5-methylcytosine; d = 2'-deoxy (DNA)
Outcome Measure: IL-6 mRNA expression, % UTC (% UTC)
Quick reminder: number only, in % UTC, skip the unit.

Any idea what IL-6 mRNA expression, % UTC was measured for 327921 (antisense e[5mC]*eT*eT*e[5mC]*e[5mC]*eA*eG*eT*e[5mC]*eG*eG*eG*eG*eA*eT*eG*eT*eT*eT*eA*e[5mC]*eA) [compound 327921] ? 223

// returns reported IL-6 mRNA expression, % UTC for input 229927 (antisense e[5mC]*e[5mC]*eA*e[5mC]*eA*dT*dT*dG*dA*dG*dT*dT*dT*d[5mC]*dT*eT*eT*eA*eA*eG) [compound 229927] 57

Which IL-6 mRNA expression, % UTC is listed for 129690 (antisense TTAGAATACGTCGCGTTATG; sugars from the 5' end e5 d10 e5, all phosphorothioate, methylation of C not given here) [compound 129690] ? 98

Sample 289606 (antisense CCUUCCCUGAAGGUUCCUCC; all 2'-MOE, all C 5-methyl, all phosphorothioate, T or U not given here) [compound 289606] — what was its IL-6 mRNA expression, % UTC? 77

Which measured IL-6 mRNA expression, % UTC value corresponds to 342683 (antisense CCTTCCCTGAAGGTTCCTCCTT; scrambled control, further chemistry not given here) [compound 342683] ? 135

For the substance 327941 (antisense eA*eA*e[5mC]*e[5mC]*e[5mC]*eA*e[5mC]*e[5mC]*eG*eA*e[5mC]*eA*eG*e[5mC]*eA*eA*eT*eG*eA*eA*eT*eG*eT*eT) [compound 327941] , what IL-6 mRNA expression, % UTC is on record? 293

====

Please provide measured % cells in cell cycle phase: subG1 for the entries that follow.
Test system: HeLa cells
Protocol Notes: Cell cycle assay in HeLa cells
Format: cell-based, human
Condition Description: HeLa cells, 150 nM oligomeric compound, 48 hours after treatment; relative to untreated control (UTC=100)
In the oligonucleotide strings, read from the 5' end, every base follows the letter of its sugar. An asterisk marks phosphorothioate; unmarked linkages are phosphodiester. Other units and linkages are bracketed, terminal groups are in braces. A string of capitals states the bases alone. e = 2'-O-(2-methoxyethyl) (MOE); [5mC] = 5-methylcytosine; d = 2'-deoxy (DNA)

% cells in cell cycle phase: subG1 for 338809 (antisense CTGCTCCAGAGCCCGAGTCG; all 2'-MOE, all phosphorothioate, methylation of C not given here) [compound 338809] ? 345%

Query (substance): 328397 (antisense eT*eT*eG*eA*eT*d[5mC]*d[5mC]*dA*dT*dA*dT*dG*d[5mC]*dA*dA*e[5mC]*eA*eA*eG*eG) [compound 328397] ; field requested: % cells in cell cycle phase: subG1 74%

Reported % cells in cell cycle phase: subG1 for 328647 (eG*eG*eA*eG*eT*dA*dG*dA*dT*dG*dA*dT*dG*dG*dT*eT*eA*eG*e[5mC]*e[5mC]; antisense) [compound 328647] : what is it? 589%

====

Please provide measured IL-12 mRNA expression, % UTC for the entries that follow.
System: IL-12 mRNA
Protocol Notes: IL-12 mRNA in LPS-activated primary murine macrophages
Format: cell-based, mouse
Condition Description: 300 nM, +IFN, LPS; average of 3 treatments
Description: To investigate the role of miRNAs in the immune response, oligomeric compounds of the present invention targeting miRNAs were tested for their effects upon lipopolysaccharide (LPS)-activated primary murine macrophages. Macrophages participate in the immune response, for example, in the recognition and phagocytosis of microorganisms, including bacteria. […]
In the oligonucleotide strings, read from the 5' end, every base follows the letter of its sugar. An asterisk marks phosphorothioate; unmarked linkages are phosphodiester. Other units and linkages are bracketed, terminal groups are in braces. A string of capitals states the bases alone. e = 2'-O-(2-methoxyethyl) (MOE); [5mC] = 5-methylcytosine; d = 2'-deoxy (DNA)
Lab book: enter the figure in % UTC, no units written.

Fill blank: measured IL-12 mRNA expression, % UTC of the substance 327921 (antisense e[5mC]*eT*eT*e[5mC]*e[5mC]*eA*eG*eT*e[5mC]*eG*eG*eG*eG*eA*eT*eG*eT*eT*eT*eA*e[5mC]*eA) [compound 327921] is ____. 5

Reported IL-12 mRNA expression, % UTC for 129690 (antisense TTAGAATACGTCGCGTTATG; sugars from the 5' end e5 d10 e5, all phosphorothioate, methylation of C not given here) [compound 129690] : what is it? 66

# get_value(readout='IL-12 mRNA expression, % UTC', item= 342683 (antisense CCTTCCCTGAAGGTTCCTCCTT; scrambled control, further chemistry not given here) [compound 342683] ) 65

Record request: IL-12 mRNA expression, % UTC value, item 327941 (antisense eA*eA*e[5mC]*e[5mC]*e[5mC]*eA*e[5mC]*e[5mC]*eG*eA*e[5mC]*eA*eG*e[5mC]*eA*eA*eT*eG*eA*eA*eT*eG*eT*eT) [compound 327941] 3

// IL-12 mRNA expression, % UTC lookup, key: 229927 (antisense e[5mC]*e[5mC]*eA*e[5mC]*eA*dT*dT*dG*dA*dG*dT*dT*dT*d[5mC]*dT*eT*eT*eA*eA*eG) [compound 229927] 16

Return reported IL-12 mRNA expression, % UTC; argument: 289606 (antisense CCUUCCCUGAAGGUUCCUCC; all 2'-MOE, all C 5-methyl, all phosphorothioate, T or U not given here) [compound 289606] 52

====

Give Fold Increase over UTC (caspase-3 activity, apoptosis) for every item shown.
System: T47D cells
Protocol Notes: Caspase-3 activity assay (apoptosis) in T47D cells
Condition Description: T47D cells, 200 nM oligomeric compound, 48 hours; experiment of Table 11
In the oligonucleotide strings, read from the 5' end, every base follows the letter of its sugar. An asterisk marks phosphorothioate; unmarked linkages are phosphodiester. Other units and linkages are bracketed, terminal groups are in braces. A string of capitals states the bases alone. e = 2'-O-(2-methoxyethyl) (MOE); [5mC] = 5-methylcytosine; d = 2'-deoxy (DNA)
The answer is to be given in fold; state only the numeric part.

Provide value of Fold Increase over UTC (caspase-3 activity, apoptosis) for this record tested with T47D cells: 328410 (antisense eG*eG*eG*e[5mC]*e[5mC]*dT*dA*dT*d[5mC]*d[5mC]*dA*dA*dA*dG*dT*eG*eA*e[5mC]*eA*eG) [compound 328410] 1.5

Missing value: Fold Increase over UTC (caspase-3 activity, apoptosis), T47D cells, entry 328374 (eA*eG*e[5mC]*eT*eT*dT*dA*dG*d[5mC]*dT*dG*dG*dG*dT*d[5mC]*eA*eG*eG*eA*e[5mC]; antisense) [compound 328374] . Fill in? 1.1

Param readout = Fold Increase over UTC (caspase-3 activity, apoptosis); param system = T47D cells; param query = 328695 (eG*eG*eA*eT*eT*dT*dA*dA*dA*d[5mC]*dG*dG*dT*dA*dA*eA*e[5mC]*eA*eT*e[5mC]; antisense) [compound 328695] ; response: value 0.8
